- system: gH/gL/UL128/UL130/UL131A pentamer complex (PC) of HCMV strain TB40/E virus (human cytomegalovirus strain TB40/E)
- experimentalDetails: cell-based or functional assay
quantityMeasured: IC50, neutralization of TB40/E infection of CTB (µg/mL)
Answers are plain numbers, in µg/mL.

Item 1B2 (antibody, V domains shown, also called NAb 1B2) VH: EVQLVESGGVLVKPGGSLKLSCAASGFTFSDYYMYWVRQTPEKRLEWVATISDDGNYTNYPDSVKGRFTISRDNAKNNLYLQMSSLKSEDTAMYYCARGWLLPVFAYWGQGTLVTVSA VL: DIVLTQSPATLSVTPGDSVSLSCRASQSIGNNLHWYQQKSHESPRLLIKYTSQSISGIPSRFSGSGSGTDFTLNINSVETEDFGVYFCQQSNRWPWTFGGGTKLEIK has what recorded IC50, neutralization of TB40/E infection of CTB?
0.0126
